Below, each of the compounds is paired with its reported pIC50 value.
Assay Target: KRasG12C (Homo sapiens, UniProt P01116, G12C)
Construct: biotin (biotinylated); made in house
Assay Notes: KRasG12C functional assay (HTRF nucleotide exchange / Raf RBD binding)
Assay type: biochemical
Measurement Setup: GDP loaded biotinylated KRasG12C, samples incubated 4 hrs, FRET readout; single experiment or average of two or more
Conceptually, pIC50 converts a concentration in mol/L into minus its log10.

# annotated cases, reported pIC50 shown
Ask: Report measured pIC50; entry is C=CC(=O)N1CCN2c3c(cnc4c(C)c(-c5c(O)cccc5F)c(Cl)cc34)OC[C@H]2C1 (single isomer, unassigned) [Compound 38]
Result: 5.01

Ask: Report measured pIC50; entry is C=CC(=O)N1CCN2c3c(cnc4c(F)c(-c5c(C)ccc6[nH]cnc56)c(Cl)cc34)N(C)C(=O)[C@H]2C1 (single isomer, unassigned) [Compound 25]
Result: 7.55

Now for a further compound.
Ask: Report measured pIC50; entry is C=CC(=O)N1CCN2c3c(cnc4c(F)c(-c5c(C)cccc5O)c(Cl)cc34)N(C)C(=O)[C@H]2C1 (single isomer, unassigned) [Compound 54]
Result: 7.40

* * *

Assay Target: KRasG12C (Homo sapiens, UniProt P01116, G12C)
Construct: biotin (biotinylated); made in house
Assay Notes: KRasG12C Mass Spectrometry adducting assay
Type: binding
Measurement Setup: 10 μM test compound, 4 μM KRasG12C, 4 hours reaction; single experiment or average of two or more
Below, each of the molecules is paired with its reported KRasG12C M.S. Binding Mean adduct % value.
Numeric answer plus unit only.

Ask: Report measured KRasG12C M.S. Binding Mean adduct %; entry is C#Cc1cc2c3c(cnc2cc1-c1c(C)ccc2[nH]ncc12)OC[C@H]1CN(C(=O)C=C)CCN31 (single isomer, unassigned) [Compound 75]
Result: 96%

Ask: Report measured KRasG12C M.S. Binding Mean adduct %; entry is C=CC(=O)N1CCN2c3c(cnc4cc(-c5c(C)ccc6[nH]cnc56)c(Cl)cc34)OC[C@H]2C1 (single isomer, unassigned) [Compound 66]
Result: 25%

Ask: Report measured KRasG12C M.S. Binding Mean adduct %; entry is C=CC(=O)N1CCN2c3c(cnc4c(F)c(-c5c(O)cccc5F)c(Cl)cc34)NC(=O)[C@H]2C1 (single isomer, unassigned) [Compound 88]
Result: 96%

* * *

Assay Target: KRasG12C (Homo sapiens, UniProt P01116, G12C)
Construct: biotin (biotinylated)
Assay Notes: KRasG12C functional assay (HTRF nucleotide exchange / Raf RBD binding)
Measurement Setup: GDP loaded biotinylated KRasG12C, samples incubated 4 hrs, FRET readout; single experiment or average of two or more
Below, each of the compounds is paired with its reported pIC50 value.
Conceptually, pIC50 converts a concentration in mol/L into minus its log10.

Ask: Report measured pIC50; entry is C=CC(=O)N1CCN2c3c(cnc4c(F)c(-c5c(O)cccc5C(F)F)c(Cl)cc34)N(C)C(=O)[C@H]2C1 (single isomer, unassigned) [Compound 61]
Result: 4.41

Ask: Report measured pIC50; entry is C=CC(=O)N1CCN2c3c(cnc4cc(-c5c(C)ccc6[nH]c(=O)n(C)c56)c(Cl)cc34)OC[C@H]2C1 (single isomer, unassigned) [Compound 68]
Result: 4.94

Continuing:
Ask: Report measured pIC50; entry is C=CC(=O)N1CCN2c3c(cnc4c(OC)c(-c5c(O)cccc5F)c(Cl)cc34)OC[C@H]2C1 (single isomer, unassigned) [Compound 24]
Result: 7.15

Ask: Report measured pIC50; entry is C=CC(=O)N1CCN2c3c(cnc4cc(-c5c(O)cccc5F)c(Cl)cc34)N(CCN(C)C)C[C@H]2C1 [Example 12]
Result: 6.64
